# System: HepaRG
# Procedure Text: LDH release cytotoxicity, % of total lysis control; higher = more cytotoxic
# Condition Label: 0.05 µM; 48 h
// reported LDH release cytotoxicity per item
Recorded Metric: LDH release cytotoxicity (%)

[[record]]
molecule = "O=C1NC(=O)C(c2ccccc2)(c2ccccc2)N1 [5,5-Diphenylhydantoin]"
reading_unit = "%"
reported = -5.08

[[record]]
molecule = "CCCSP(=O)(OCC)Oc1ccc(Br)cc1Cl (stereo not given) [Profenofos]"
reading_unit = "%"
reported = -6.73

[[record]]
molecule = "CCOc1nc(F)cc2nc(S(=O)(=O)Nc3c(Cl)cccc3Cl)nn12 [Diclosulam]"
reading_unit = "%"
reported = -5.8

[[record]]
molecule = "O=C(NC(=O)c1cc(F)c(F)cc1Cl)Nc1cc(F)ccc1N1CCC(C(=O)O)CC1 [AVE2865]"
reading_unit = "%"
reported = -1.08

[[record]]
molecule = "CC12CCC3c4ccc(O)cc4CCC3C1CCC2O (stereo not drawn) [17beta-Estradiol]"
reading_unit = "%"
reported = -1.17


----------
# System: HepaRG
# Procedure Text: LDH release cytotoxicity, % of total lysis control; higher = more cytotoxic
# Condition Label: 100 µM; 48 h
// reported LDH release cytotoxicity per item
Recorded Metric: LDH release cytotoxicity (%)

[[record]]
compound = "COCCOCCOCCOC"
reported = 1.14

[[record]]
compound = "Nc1cc2c3c(c1)C(c1ccccc1)=NC(NC(=O)c1cccnc1)C(=O)N3CC2 (centres undefined)"
reported = 0.815

[[record]]
compound = "Cc1ccc(C)c(O)c1C"
reported = 0.375

[[record]]
compound = "Clc1ccc(C(c2ccc(Cl)cc2)C(Cl)(Cl)Cl)cc1"
reported = 1.05

[[record]]
compound = "O=c1n(CC2CO2)c(=O)n(CC2CO2)c(=O)n1CC1CO1 (centres undefined) [Tris(2,3-epoxypropyl)isocyanurate]"
reported = 1.86

[[record]]
compound = "CCCCc1ccccc1"
reported = 1.27

[[record]]
compound = "ClC1=C(Cl)C2(Cl)C3C4CC(C5OC45)C3C1(Cl)C2(Cl)Cl (centres undefined)"
reported = 2.21

[[record]]
compound = "O=C(O)c1cccc(C(=O)O)c1"
reported = 4.89

[[record]]
compound = "CCCCN(CCCC)CCCC"
reported = 3.29


----------
// reported LDH release cytotoxicity per item
# Test system: HepaRG
# Procedure Text: LDH release cytotoxicity, % of total lysis control; higher = more cytotoxic
# Condition Label: 3.16228 µM; 48 h
Recorded Metric: LDH release cytotoxicity (%)

[[record]]
compound = "Nc1ccc(Cl)cc1N"
recorded_metric = "LDH release cytotoxicity"
reported = -0.451

[[record]]
compound = "COC(=O)c1c(C(F)F)nc(C(F)(F)F)c(C2=NCCS2)c1CC(C)C"
recorded_metric = "LDH release cytotoxicity"
reported = -0.567

[[record]]
compound = "CCCCC(CC)COC(=O)c1ccc(C(=O)OCC(CC)CCCC)c(C(=O)OCC(CC)CCCC)c1 (stereo not given) [Tris(2-ethylhexyl) trimellitate]"
recorded_metric = "LDH release cytotoxicity"
reported = -1.18

[[record]]
compound = "CCCCc1ccccc1"
recorded_metric = "LDH release cytotoxicity"
reported = -0.941

[[record]]
compound = "Oc1cccc2cccnc12 [8-Hydroxyquinoline]"
recorded_metric = "LDH release cytotoxicity"
reported = -1.01

[[record]]
compound = "[O-][n+]1ccccc1S [Sodium (2-pyridylthio)-N-oxide]"
recorded_metric = "LDH release cytotoxicity"
reported = -1.51

[[record]]
compound = "COP(=S)(OC)Oc1ccc([N+](=O)[O-])cc1"
recorded_metric = "LDH release cytotoxicity"
reported = -0.845

[[record]]
compound = "O=C(Oc1ccc(Br)cc1)N1CCN2CCC1CC2"
recorded_metric = "LDH release cytotoxicity"
reported = -1.43

[[record]]
compound = "Cc1cccc(N)c1"
recorded_metric = "LDH release cytotoxicity"
reported = -0.813

[[record]]
compound = "CCOc1cccc(-n2cc(C(=O)N3CCN(c4cc(C(=O)O)c5ccccc5c4)CC3)nc2-c2ccc(C)cc2)c1"
recorded_metric = "LDH release cytotoxicity"
reported = -0.46

[[record]]
compound = "CNC(=O)Oc1ccccc1OC(C)C"
recorded_metric = "LDH release cytotoxicity"
reported = 0.431

[[record]]
compound = "CC(C)CC(C)(O)C#CC(C)(O)CC(C)C (stereo not given)"
recorded_metric = "LDH release cytotoxicity"
reported = -0.76

[[record]]
compound = "Clc1cc(Cl)c(Cl)cc1Cl"
recorded_metric = "LDH release cytotoxicity"
reported = -0.932

[[record]]
compound = "CCCCCCOC(=O)CC(CC(=O)OCCCCCC)(OC(=O)CCC)C(=O)OCCCCCC [Butyryl-n-trihexylcitrate]"
recorded_metric = "LDH release cytotoxicity"
reported = -0.796

[[record]]
compound = "CCOP(=S)(OCC)SCCSCC"
recorded_metric = "LDH release cytotoxicity"
reported = -1.34

[[record]]
compound = "COCCO"
recorded_metric = "LDH release cytotoxicity"
reported = -2.13

[[record]]
compound = "CNS(=O)(=O)c1cc(C(=O)N2CCC(CCN3C4CCC3CC(n3c(C)nc5ccccc53)C4)(c3cccc(F)c3)CC2)c(Cl)cc1F (stereo not given)"
recorded_metric = "LDH release cytotoxicity"
reported = -1.08

[[record]]
compound = "S=C(S)NCCNC(=S)S"
recorded_metric = "LDH release cytotoxicity"
reported = 25.2

[[record]]
compound = "O=[N+]([O-])c1ccccc1"
recorded_metric = "LDH release cytotoxicity"
reported = -1.24

[[record]]
compound = "O=C(Nc1ccccc1)c1ccccc1I"
recorded_metric = "LDH release cytotoxicity"
reported = -0.274

